- EXPERIMENTAL_TARGET: acetylcholine receptor
- ASSAY_OVERVIEW: SPR, AchR immobilised on CM5 chip, peptide 10 uM
TEST_READOUT: Binding affinity (RU)

Below, 10 binders whose answers are already recorded.
KKEKKK [6mer-2-788]    30
RFDEKK [6mer-2-759]    18
KKASDR [6mer-1-1034]    24
RRPPWK [6mer-1-996]    39
RDKERR [6mer-2-689]    24
RKAMDK [6mer-1-951]    29
RHSKKK [6mer-2-721]    26
RKDHWR [6mer-1-969]    33
RKPAHK [6mer-1-974]    27
KRAAHR [6mer-1-1043]    30

[P] RRCHHR [6mer-1-1035]
[Q] REEFRR [6mer-2-641]
[R] RIWHKK [6mer-2-787]
Put the entries in order of Binding affinity (RU), starting with the largest number. Write the labels, ordered according to the request.
P, R, Q
(P: 34 RU, R: 19 RU, Q: 12 RU)
